- ASSAY SUMMARY: in vivo
- Design: species or system mouse (C57B1/6)
- MEASUREMENT CONTEXT: mouse, in vivo, iv, 100 mg/kg
MEASURE: concentration at 2 h

[[record]]
compound = "NCC[C@H](O)C(=O)N[C@@H]1C[C@H](N)[C@@H](O[C@H]2O[C@H](CN)[C@@H](O)[C@H](O)[C@H]2O)[C@H](O)[C@H]1O[C@H]1O[C@H](CO)[C@@H](O)[C@H](N)[C@H]1O [amikacin]"
assay_value = "65 µg/mL"


====

- ASSAY SUMMARY: in vivo
- Parameters: species or system mouse (C57B1/6)
- MEASUREMENT CONTEXT: mouse, in vivo, iv, 100 mg/kg
MEASURE: concentration at 5 min (µg/mL)

[[record]]
compound = "NCC[C@H](O)C(=O)N[C@@H]1C[C@H](N)[C@@H](O[C@H]2O[C@H](CN)[C@@H](O)[C@H](O)[C@H]2O)[C@H](O)[C@H]1O[C@H]1O[C@H](CO)[C@@H](O)[C@H](N)[C@H]1O [amikacin]"
result_unit = "µg/mL"
assay_value = 406

